molecular target: human GLP-1 receptor (Homo sapiens, UniProt P43220); experiment: cAMP production assay in CHO cells expressing human GLP-1 receptor; type: cell-based; conditions: Table 18; maximum activation compared to GLP-1
Sequence (P43220 24-463): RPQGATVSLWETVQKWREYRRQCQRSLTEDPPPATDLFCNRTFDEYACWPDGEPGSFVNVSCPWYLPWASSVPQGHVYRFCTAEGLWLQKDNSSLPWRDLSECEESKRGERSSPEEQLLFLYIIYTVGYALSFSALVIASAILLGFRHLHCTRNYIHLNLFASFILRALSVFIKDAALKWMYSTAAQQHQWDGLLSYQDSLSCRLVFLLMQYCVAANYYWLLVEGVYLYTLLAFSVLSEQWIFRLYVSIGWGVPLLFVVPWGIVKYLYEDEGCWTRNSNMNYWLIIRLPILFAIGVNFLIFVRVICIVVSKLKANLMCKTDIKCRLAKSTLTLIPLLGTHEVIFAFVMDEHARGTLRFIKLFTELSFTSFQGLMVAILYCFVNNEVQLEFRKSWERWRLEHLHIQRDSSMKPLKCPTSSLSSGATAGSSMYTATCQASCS

| molecule | % Max Effect, % |
| --- | --- |
| HS9_DSB7_L26G: HS9_DSB7 with peptide point mutation L26G; SEQ ID NO: 469 (protein) HGEGTFTSDLSKQMEEECVRLFIEWGKNGGPSSGAPPPGCGGGGGSGGGGSGGGGSADIQMTQSPSSLSASVGDRVTITCQASQDVKTAVAWYQQKPGKAPKLLIYSASYRYTGVPSRFSGSGSGTDFTFTISSLQPEDIATYYCQQRYSLWRTFGQGTKLEIK | 81 |
| HS9_DSB7_L26M: HS9_DSB7 with peptide point mutation L26M; SEQ ID NO: 466 (protein) HGEGTFTSDLSKQMEEECVRLFIEWMKNGGPSSGAPPPGCGGGGGSGGGGSGGGGSADIQMTQSPSSLSASVGDRVTITCQASQDVKTAVAWYQQKPGKAPKLLIYSASYRYTGVPSRFSGSGSGTDFTFTISSLQPEDIATYYCQQRYSLWRTFGQGTKLEIK | 90 |
